system: A549; test: Antiproliferative activity against human A549 cells after 72 hrs by MTT assay; assay type: functional, cell-based; details: A549, 72 h
READOUT TYPE: pIC50
Numbers only, as −log10 of the molar value.

Some solved cases for reference:
>  <SMILES NOTATION>
Cc1ccc(-c2nn3c(-c4ccc5c(c4)OCO5)nnc3s2)cc1

>  <READOUT TYPE>
pIC50

>  <NUMBER>
4.56

$$$$
>  <SMILES NOTATION>
COc1ccc(-c2nn3c(-c4cc(OC)c(OC)c(OC)c4)nnc3s2)cc1[N+](=O)[O-]

>  <READOUT TYPE>
pIC50

>  <NUMBER>
4.58

$$$$
>  <SMILES NOTATION>
COc1ccc(-c2nnc3sc(-c4ccc(OC)c([N+](=O)[O-])c4)nn23)cc1OC

>  <READOUT TYPE>
pIC50

>  <NUMBER>
4.52

$$$$
>  <SMILES NOTATION>
COc1ccc(-c2nn3c(-c4ccc5c(c4)OCO5)nnc3s2)cc1N

>  <READOUT TYPE>
pIC50

>  <NUMBER>
6.57

$$$$

Let us examine a further case.
Using the record for COc1ccc(-c2nnc3sc(-c4ccc(C)cc4)nn23)c(OC)c1OC , state its measured pIC50.
6.10

###

tested on: HT-1080; assay: Antiproliferative activity against human HT1080 cells after 72 hrs by MTT assay; assay type: functional, cell-based; conditions: HT-1080, 72 h
Give measured pIC50 for each item. Keep answers brief.
One number for each entry, as −log10 of the molar value.

Worked cases, answers included:
>  <SMILES NOTATION>
COc1ccc(-c2nn3c(-c4ccc5c(c4)OCO5)nnc3s2)cc1N

>  <READOUT TYPE>
pIC50

>  <NUMBER>
6.49

$$$$
>  <SMILES NOTATION>
COc1cc(C(=O)c2c[nH]c(-c3ccccc3)n2)cc(OC)c1OC

>  <READOUT TYPE>
pIC50

>  <NUMBER>
6.82

$$$$
>  <SMILES NOTATION>
COc1ccc(-c2nn3c(-c4ccc(OC)c(OC)c4)nnc3s2)cc1N

>  <READOUT TYPE>
pIC50

>  <NUMBER>
6.47

$$$$

Hello, I would appreciate it if you could give pIC50 for each entry below.
1. COc1ccc(-c2nnc3sc(-c4ccc(OC)c(N)c4)nn23)cc1
2. Cc1ccc(-c2nn3c(-c4ccc5c(c4)OCO5)nnc3s2)cc1

[4.79, 4.57]

For each of the items listed, what is its pIC50?
1. COc1ccc(-c2nn3c(-c4ccc5c(c4)OCO5)nnc3s2)cc1
2. COc1cc(C(=O)c2csc(-c3ccccc3)n2)cc(OC)c1OC

[4.61, 7.55]
